These data points were gathered from ChEMBL document CHEMBL1123413.

Test target: Adrenergic receptor alpha-1 (Rattus norvegicus, UniProt P15823+P23944+P43140)
Property: IC50
The answer consists of two parts: a number and, after it, its unit.

1. CCCC1(C)CC(=O)N(CCCCN2CCN(c3nsc4ccccc34)CC2)C(=O)C1.Cl | 9 nM

Q: # get_value(readout='IC50', item= OC(CCCN1CCN(c2noc3ccccc23)CC1)c1ccc(F)cc1 (stereo not given) )
Result: 2 nM

Q: Note, next up: O=C(CCCN1CCN(c2noc3ccccc23)CC1)c1ccc(F)cc1
Result: 5 nM

Q: Queued: CC1(C)CC(=O)N(CCCCN2CCN(c3nsc4ccccc34)CC2)C(=O)C1
Result: 4 nM

Q: Next molecule up: O=C1CC2(CCCC2)CC(=O)N1CCCCN1CCN(c2noc3ccc(Cl)cc23)CC1
Result: 46 nM

---

Listed molecules paired with reported pIC50
Test target: D(2) dopamine receptor (Rattus norvegicus, UniProt P61169)
Sequence (P61169 whole entry): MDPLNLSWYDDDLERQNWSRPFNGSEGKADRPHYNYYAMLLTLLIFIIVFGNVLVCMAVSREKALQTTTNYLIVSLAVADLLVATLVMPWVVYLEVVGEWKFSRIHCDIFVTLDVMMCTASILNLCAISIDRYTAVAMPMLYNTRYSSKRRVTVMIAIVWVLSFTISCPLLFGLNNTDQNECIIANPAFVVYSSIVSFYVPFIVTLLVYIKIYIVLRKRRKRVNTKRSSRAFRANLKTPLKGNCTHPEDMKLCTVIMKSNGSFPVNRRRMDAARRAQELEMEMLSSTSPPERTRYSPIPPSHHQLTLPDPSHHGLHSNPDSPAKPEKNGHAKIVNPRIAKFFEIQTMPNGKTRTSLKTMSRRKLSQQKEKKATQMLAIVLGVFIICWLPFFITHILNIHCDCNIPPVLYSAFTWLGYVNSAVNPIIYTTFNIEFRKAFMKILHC
Protocol notes: In vitro affinity for rat striatal Dopamine receptor D2 labeled with [3H]spiperone
The quantity pIC50 is defined as the negative base-10 logarithm of the molar concentration.

Answered examples (6):
1) O=C(CCCN1CCN(c2noc3ccccc23)CC1)c1ccc(F)cc1 | 7.16
2) O=C1CC2(CCCC2)CC(=O)N1CCCN1CCN(c2nsc3ccccc23)CC1 | 6.84
3) O=C1CC2(CCCC2)CC(=O)N1CCCCN1CCN(c2nc3ccccc3s2)CC1 | 6.84
4) O=C1CSC(=O)N1CCCCN1CCN(c2noc3ccc(Cl)cc23)CC1 | 6.36
5) O=C(CCCN1CCN(c2nsc3ccccc23)CC1)c1ccc(F)cc1 | 8.00
6) O=C1CC2(CCCC2)CC(=O)N1CCCCN1CCN(c2noc3ccccc23)CC1 | 7.60

Q: What value of pIC50 has been reported for the following molecule? Cl.O=C1CSC(=O)N1CCCCN1CCN(c2nsc3ccccc23)CC1
Result: 7.28

Q: Repeat with Cl.O=C1CC2(CCCC2)CC(=O)N1CCCCN1CCN(c2nsc3ccccc23)CC1 [TIOSPIRONE HYDROCHLORIDE]
Result: 8.10

Q: Continue with OC(CCCN1CCN(c2noc3ccccc23)CC1)c1ccc(F)cc1 (centres undefined)
Result: 7.52

Q: Try this molecule too: Cl.O=C1SC2(CCCC2)C(=O)N1CCCCN1CCN(c2nsc3ccccc23)CC1
Result: 7.38

Q: And then O=C1CSC(=O)N1CCCCN1CCN(c2noc3ccccc23)CC1 , what is it?
Result: 6.62

Q: And for CC1CN(CCCCN2C(=O)CC3(CCCC3)CC2=O)CCN1c1nsc2ccccc12 (centres undefined) ?
Result: 7.19

Q: Another molecule to check: O=C1CC2(CCCC2)CC(=O)N1CCCCN1CCN(c2noc3ccc(Cl)cc23)CC1
Result: 6.44

---

Species on record: Rattus norvegicus
Protocol notes: Compound was tested for the inhibition of apomorphine-induced stereotype
Type: functional
Property: ED50 (mg/kg)
Kindly provide the numeric value in mg/kg only, without the unit symbol.

Q: Fill blank: measured ED50 of the molecule CN(C)CCCN1c2ccccc2Sc2ccc(Cl)cc21 is ____.
Result: 9.6

Q: Another molecule to check: OC(CCCN1CCN(c2noc3ccccc23)CC1)c1ccc(F)cc1 (configuration not stated)
Result: 2.3

Q: Also check O=C(CCCN1CCC(O)(c2ccc(Cl)cc2)CC1)c1ccc(F)cc1
Result: 0.5

Q: Similarly, CN1CCN(CCCN2c3ccccc3Sc3ccc(C(F)(F)F)cc32)CC1 ?
Result: 6.5

Q: Do the same for O=C1CC2(CCCC2)CC(=O)N1CCCCN1CCN(c2noc3ccccc23)CC1 please
Result: 20.2

Q: Ok, now CC1(C)CC(=O)N(CCCCN2CCN(c3nsc4ccccc34)CC2)C(=O)C1
Result: 4.8

Q: Request: CSc1ccc2c(c1)N(CCC1CCCCN1C)c1ccccc1S2 (configuration not stated)
Result: 280

---

Listing: pIC50 of selected compounds
Test target: GABA-A receptor; anion channel
Protocol notes: Inhibition of [3H]muscimol binding to Gamma-aminobutyric acid (GABA-A) receptor
pIC50: −log10 of the molar value.

1) CN1CCN(C2=Nc3cc(Cl)ccc3Nc3ccccc32)CC1 [CLOZAPINE] | < 6.00

Q: // query pIC50 value for entry Cl.O=C1CC2(CCCC2)CC(=O)N1CCCCN1CCN(c2nsc3ccccc23)CC1 [TIOSPIRONE HYDROCHLORIDE]
Result: < 6.00

---

Protocol notes: Lethal dose after intraperitoneal administration in mouse
Format: toxicity, organism-based
Measurement setup: in vivo, ip, read-out: ALD50
Property: LD50 (mg/kg)
Kindly answer with a numeric value in mg/kg, unit omitted.

Q: Given the compound Cl.O=C1CC2(CCCC2)CC(=O)N1CCCCN1CCN(c2nsc3ccccc23)CC1 [TIOSPIRONE HYDROCHLORIDE] , what is its reported LD50?
Result: 1530

---

Species on record: Rattus norvegicus
Protocol notes: Inhibition of conditioned avoidance response (CAR)
Assay type: functional
Listing: ED50 of selected compounds

1) Cl.c1ccc2c(N3CCNCC3)noc2c1 | > 100 mg/kg

Q: Which ED50 value is on record for O=C(CCCN1CCC(O)(c2ccc(Cl)cc2)CC1)c1ccc(F)cc1 ?
Result: 2.8 mg/kg

Q: Next up: O=C1CSC(=O)N1CCCCN1CCN(c2noc3ccc(Cl)cc23)CC1
Result: > 100 mg/kg

Q: Now consider O=C1CC2(CCCC2)CC(=O)N1CCCN1CCN(c2nsc3ccccc23)CC1 .
Result: > 100 mg/kg

Q: Can you check CC1CN(CCCCN2C(=O)CC3(CCCC3)CC2=O)CCN1c1nsc2ccccc12 (stereo not given) next?
Result: > 100 mg/kg

Q: How about O=C(CCCN1CCN(c2noc3ccccc23)CC1)c1ccc(F)cc1 ?
Result: 5.8 mg/kg

Q: What do you have for Cl.c1ccc2c(N3CCNCC3)nsc2c1 ?
Result: > 100 mg/kg

---

Protocol notes: Binding affinity against Muscarinic acetylcholine receptor was measured using radioligand ([3H]QNB) binding assay
Property: IC50

Q: What does the record list as IC50 for Cl.O=C1CC2(CCCC2)CC(=O)N1CCCCN1CCN(c2nsc3ccccc23)CC1 [TIOSPIRONE HYDROCHLORIDE] ?
Result: > 1000 nM

---

Protocol notes: Binding affinity against histamine receptor was measured using radioligand ([3H]-pyrilamine) binding assay
Property: pIC50
// pIC50: -log10(molar conc.)

1) Cl.O=C1CC2(CCCC2)CC(=O)N1CCCCN1CCN(c2nsc3ccccc23)CC1 [TIOSPIRONE HYDROCHLORIDE] | 6.85

Here is the next item to consider.
Q: Quick check: pIC50 of CN1CCN(C2=Nc3cc(Cl)ccc3Nc3ccccc32)CC1 [CLOZAPINE] ?
Result: 7.74

---

Quick note: these are IC50 numbers for system: Adrenergic receptor alpha-1 (Rattus norvegicus, UniProt P15823+P23944+P43140)
All answers are understood in nM, so give the number only.

Answered examples (5):
1. Cl.c1ccc2c(N3CCNCC3)nsc2c1 | 510
2. O=C1CSC(=O)N1CCCCN1CCN(c2noc3ccccc23)CC1 | 1
3. O=C1CSC(=O)N1CCCCN1CCN(c2noc3ccc(Cl)cc23)CC1 | 33
4. O=C1CC2(CCCC2)CC(=O)N1CCCCN1CCN(c2noc3ccccc23)CC1 | 7
5. OC(CCCN1CCN(c2nsc3ccccc23)CC1)c1ccc(F)cc1 (stereo unspecified) | 2

Q: Fill blank: measured IC50 of the compound Cl.O=C1CC2(CCCC2)CC(=O)N1CCCCN1CCN(c2nsc3ccccc23)CC1 [TIOSPIRONE HYDROCHLORIDE] is ____.
Result: 47

Q: Would you kindly repeat that for Cl.O=C1CSC(=O)N1CCCCN1CCN(c2nsc3ccccc23)CC1 ?
Result: 0.9

Q: Continue with Cl.O=C1SC2(CCCC2)C(=O)N1CCCCN1CCN(c2nsc3ccccc23)CC1
Result: 9

Q: Now consider Cl.c1ccc2c(N3CCNCC3)noc2c1 .
Result: 165

Q: What about this compound? O=C1CC2(CCCC2)CC(=O)N1CCCN1CCN(c2nsc3ccccc23)CC1
Result: 3

Q: What would you report for O=C1CC2(CCCC2)CC(=O)N1CCCCN1CCN(c2nc3ccccc3s2)CC1 ?
Result: 454

---

Protocol notes: Binding affinity against imipramine receptor was measured using radioligand ([3H]-imipramine) binding assay
Design: species or system Rattus norvegicus
Property: IC50

Q: Item Cl.O=C1CC2(CCCC2)CC(=O)N1CCCCN1CCN(c2nsc3ccccc23)CC1 [TIOSPIRONE HYDROCHLORIDE] has what recorded IC50?
Result: > 1 µM

---

Protocol notes: Binding affinity against desipramine receptor was measured using radioligand ([3H]desipramine) binding assay
Set-up: species or system Rattus norvegicus
pIC50: −log10 of the molar value.
Property: pIC50

Q: # lookup: pIC50 of Cl.O=C1CC2(CCCC2)CC(=O)N1CCCCN1CCN(c2nsc3ccccc23)CC1 [TIOSPIRONE HYDROCHLORIDE]
Result: < 6.00
